Values were extracted from patent US12588678B2.

# Tested on: Tetranychus cinnabarinus mite larvae
# ASSAY_TEXT: Larvicidal activity test, dipping method on bean seedling leaves
# Assay type: in vivo
# TEST_CONDITIONS: Tetranychus cinnabarinus, 96 h, read-out: mortality of mite larvae (%), 200 mg/L; checked after 4 days
PROPERTY_LABEL: mortality at 200 µg/mL (%)
State just the number; it will be interpreted in %.

Please review the entries below; each comes with its answer.
>>> value_measured("Fc1cccc(F)c1C1=NC(c2ccc(CN3CCOCC3)cc2)CO1 (centres unmarked) [Compound R1-4]")
90
>>> value_measured("O=S(=O)(Oc1ccc(C2COC(c3c(F)cccc3F)=N2)cc1)c1ccccc1F (centres unmarked) [Compound R3-11]")
100
>>> value_measured("COc1ccc2ccn(Cc3ccc(C4COC(c5c(F)cccc5F)=N4)cc3)c2c1 (centres unmarked) [Compound R1-25]")
80
>>> value_measured("Fc1cccc(F)c1C1=NC(c2ccc(COCC3CCCO3)cc2)CO1 (centres unmarked) [Compound R2-9]")
100
>>> value_measured("Fc1cccnc1OCc1ccc(C2COC(c3c(F)cccc3F)=N2)cc1 (centres unmarked) [Compound R2-15]")
100
>>> value_measured("Fc1cccc(F)c1C1=NC(c2ccc(COc3ccc(Cl)cc3)cc2)CO1 (centres unmarked) [Compound R2-19]")
100
>>> value_measured("Fc1cccc(F)c1C1=NC(c2ccc(CN3CCCCCC3)cc2)CO1 (centres unmarked) [Compound R1-2]")
90
>>> value_measured("O=S(=O)(Oc1ccc(C2COC(c3c(F)cccc3F)=N2)cc1)c1ccc(Cl)cc1 (centres unmarked) [Compound R3-8]")
100
>>> value_measured("CS(=O)(=O)Oc1ccc(C2COC(c3c(F)cccc3F)=N2)cc1 (centres unmarked) [Compound R3-1]")
100
>>> value_measured("O=S(=O)(Oc1ccc(C2COC(c3c(F)cccc3F)=N2)cc1)c1cccc(F)c1 (centres unmarked) [Compound R3-12]")
100

**Query** Recall the reported mortality at 200 µg/mL of Cc1ccc2ccn(Cc3ccc(C4COC(c5c(F)cccc5F)=N4)cc3)c2c1 (centres unmarked) [Compound R1-17] on Tetranychus cinnabarinus mite larvae and write it down.
**Result** 100

**Query** Consider the molecule O=S(=O)(Oc1ccc(C2COC(c3c(F)cccc3F)=N2)cc1)c1ccc(F)cc1F (centres unmarked) [Compound R3-14] tested on Tetranychus cinnabarinus mite larvae; state its mortality at 200 µg/mL.
**Result** 100

**Query** Jot down mortality at 200 µg/mL (Tetranychus cinnabarinus mite larvae) of Fc1cccc(F)c1C1=NC(c2ccc(Cn3cccn3)cc2)CO1 (centres unmarked) [Compound R1-12] .
**Result** 100

**Query** Jot down mortality at 200 µg/mL (Tetranychus cinnabarinus mite larvae) of C#CCCOCc1ccc(C2COC(c3c(F)cccc3F)=N2)cc1 (centres unmarked) [Compound R2-7] .
**Result** 100
